Tested on: Trichomonas vaginalis G3 trophozoites
appliedConditions: HTS, parasite screen at 1 µg/mL, replicate 1
Positions of bridges follow the written chain, without caps; N, C: chain ends. Non-standard residues stand in square brackets, D forms with d. Residues, ends and D or L forms follow the SMILES beside them. *: point of attachment. NMePhe(4-NMe2) = CN[C@@H](Cc1ccc(N(C)C)cc1)C(=O)O; Pip(4-oxo) = O=C1CCN[C@H](C(=O)O)C1; Picolinoyl(3-OH) = O=C(c1ncccc1O)*; Phg = N[C@H](C(=O)O)c1ccccc1; dAbu = CC[C@@H](N)C(=O)O
valueKind: T.vaginalis_%inb_Rep1

compound: C=C1CC[C@H]2C(C)(C)CCC[C@]2(C)[C@H]1C[C@@]12C[C@H]3C(=O)N[C@@H](CC(C)C)C(=O)N3[C@@H]1Nc1ccccc12
T.vaginalis_%inb_Rep1: 15.46%

compound: C[C@H]1CC[C@H]2[C@@H](C=C[C@@H]3[C@H]4[C@@H](C)O[C@]5(O)[C@@H](CO)N(C)C(=O)[C@]45C(=O)[C@@]32C)C1
T.vaginalis_%inb_Rep1: 14.05%

compound: CC[C@H]1NC(=O)[C@@H](NC(=O)c2ncccc2O)[C@@H](C)OC(=O)[C@H](c2ccccc2)NC(=O)[C@@H]2CC(=O)CCN2C(=O)[C@H](Cc2ccc(N(C)C)cc2)N(C)C(=O)[C@@H]2CCCN2C1=O [Virginiamycin B] ({Picolinoyl(3-OH)}-T[dAbu]P[NMePhe(4-NMe2)][Pip(4-oxo)][Phg]; ester 1-C)
T.vaginalis_%inb_Rep1: 8.39%

query: T.vaginalis_%inb_Rep1 for CN(C)C1C(=O)C(C(N)=O)=C(O)C2(O)C(=O)C3=C(O)c4c(O)ccc(Cl)c4C(C)(O)C3CC12.Cl (stereo not drawn) [Epichlortetracycline hydrochloride] ?
result: 7.49%

query: T.vaginalis_%inb_Rep1 for COc1ccc2cc1Oc1cc(ccc1O)[C@H](O)[C@]13SS[C@@]4(C(=O)N1C)[C@H](O)C1=COC=C[C@H](OC2=O)[C@H]1N4C3=O [Emestrin, emestrin, reference compound] ?
result: 12.22%

query: T.vaginalis_%inb_Rep1 for COC1=C(OC)C(O)C(C)C(C)C1=O (stereo not drawn) ?
result: 11.16%

query: T.vaginalis_%inb_Rep1 for CC(C)CCC[C@@H](C)[C@@H]1CC[C@]2(C)C3=C(CC[C@@]12C)[C@@]1(C)CC[C@H](O)C(C)(C)[C@@H]1CC3 [Dihydroeuphol] ?
result: 14.92%

query: T.vaginalis_%inb_Rep1 for `C=C1[C@@H](C)[C@H]2[C@H](Cc3ccccc3)NC(=O)[C@]23[C@H](OC(C)=O)[C@@H]2O[C@H]2[C@@](C)(O)C(=O)[C@@H](C)C/C=C\[C@H]3[C@@H]1O` ?
result: 12.71%

query: T.vaginalis_%inb_Rep1 for `CCCCCCCCCCCC(=O)N[C@H]1CCOC1=O` ?
result: 9.75%

query: T.vaginalis_%inb_Rep1 for CC[C@]1(C)C[C@@H](OC(=O)CO)[C@]2(C)[C@H](C)CC[C@]3(CCC(=O)[C@H]32)[C@@H](C)[C@@H]1O [Dihydropleuromutilin] ?
result: 14.27%

query: T.vaginalis_%inb_Rep1 for CCCCCCC(C)C/C(C)=C\C(/C=C(C)/C=C/C(O)C(C)(C)c1cc(O)c([C@@H]2O[C@H](CO)C[C@H](O)[C@H]2O)c(=O)o1)CO (stereo partly drawn) ?
result: 13.39%

query: T.vaginalis_%inb_Rep1 for `C/C=C/[C@@H]1C=C[C@@H]2C[C@H](C)CC[C@H]2[C@]1(C)/C(O)=C1/C(=O)[C@H](CO)N(C)C1=O` ?
result: 12.17%

query: T.vaginalis_%inb_Rep1 for `CC[C@H](C)[C@H]1O[C@]2(C=C[C@@H]1C)C[C@@H]1C[C@@H](C/C=C(\C)[C@@H](O[C@H]3C[C@H](OC)[C@@H](O[C@H]4C[C@H](OC)[C@H](NC)[C@H](C)O4)[C@H](C)O3)[C@@H](C)/C=C/C=C3\CO[C@@H]4[C@H](O)C(C)=C[C@@H](C(=O)O1)[C@]34O)O2` ?
result: 15.19%

query: T.vaginalis_%inb_Rep1 for `CC[C@H](C)[C@H]1O[C@]2(C=C[C@@H]1C)C[C@@H]1C[C@@H](C/C=C(\C)[C@@H](O[C@H]3C[C@H](OC)[C@@H](O[C@H]4C[C@H](OC)[C@H](NC(C)=O)[C@H](C)O4)[C@H](C)O3)[C@@H](C)/C=C/C=C3\CO[C@@H]4[C@H](O)C(C)=C[C@@H](C(=O)O1)[C@]34O)O2` ?
result: 13.46%

query: T.vaginalis_%inb_Rep1 for `C[C@@H]1CCC[C@@H](O)CCC/C=C/c2cc(O)cc(O)c2C(=O)O1` ?
result: 11.90%

query: T.vaginalis_%inb_Rep1 for `CC(=O)O[C@@H]1[C@@H]2O[C@H]2[C@@](C)(O)C(=O)[C@@H](C)C/C=C\[C@H]2[C@H](O)C(C)=C(C)[C@H]3[C@H](Cc4ccccc4)NC(=O)[C@@]123` ?
result: 12.33%

query: T.vaginalis_%inb_Rep1 for O=C(O)C1CSC(c2ccccc2O)=N1 (stereo not drawn) [Dihydroaeruginoic acid] ?
result: 11.15%

query: T.vaginalis_%inb_Rep1 for CN(C)C1C(=O)C(C(N)=O)=C(O)C2(O)C(=O)C3=C(O)c4c(O)cccc4C(C)(O)C3C(O)C12 (stereo not drawn) [Epioxytetracycline] ?
result: 13.46%

query: T.vaginalis_%inb_Rep1 for `CO[C@H]1/C=C\C=C(\C)C[C@H](C)[C@H](O)[C@H](C)/C=C(C)\C=C(\C)C(=O)O[C@@H]1[C@@H](C)[C@@H](O)[C@H](C)[C@@]1(O)C[C@@H](OC(=O)/C=C/C(=O)O)[C@H](C)[C@@H](C(C)C)O1` ?
result: 71.89%

query: T.vaginalis_%inb_Rep1 for `CC[C@H]1OC(=O)[C@H](C)[C@@H](O[C@H]2C[C@@](C)(OC)[C@@H](O)[C@H](C)O2)[C@H](C)[C@@H](O[C@@H]2O[C@H](C)C[C@H](N(C)C)[C@H]2O)[C@](C)(O)C[C@@H](C)C(=O)[C@H](C)[C@@H](O)[C@]1(C)O` ?
result: 5.27%

query: T.vaginalis_%inb_Rep1 for COc1cc2c(oc(=O)c3cc(C)cc(OC)c32)c2c(C3OC(C(C)O)C(O)C3O)ccc(O)c12 (stereo not drawn) ?
result: 10.14%

###

Tested on: T. vaginalis
test: Pre-optimisation Mtz drug-sensitivity testing, 96-well, T. vaginalis
Assay type: cell-based
appliedConditions: Trichomonas vaginalis, 40 h, Cδ: 20 cells/µL, 200 µL, 40 h, read-out: Mtz IC50 T. vaginalis
valueKind: pIC50
// pIC50: -log10(molar conc.)

query: pIC50 for `Cc1ncc([N+](=O)[O-])n1CCO` ?
result: 5.67

###

Test system: Trichomonas vaginalis G3 trophozoites
appliedConditions: HTS replicate 1; parasite screen 1 µg/mL
Positions of bridges follow the written chain, without caps; N, C: chain ends. Non-standard residues stand in square brackets, D forms with d. Residues, ends and D or L forms follow the SMILES beside them. *: point of attachment. d(aThr) = C[C@@H](O)[C@@H](N)C(=O)O; X1 = CCCCCCCCCCCC(O)CC(=O)*
Below: a set of entries, each annotated with reported T.vaginalis_%inb_Rep1.
Give your result in % as a bare value.

Known results for compounds:
compound: O=c1cc(O)c1=O [Moniliformin]
targetDesc: Trichomonas vaginalis G3 trophozoites
T.vaginalis_%inb_Rep1 [%]: 8.57
//
compound: CCC[C@H](O)C[C@@H]1CC[C@H](C)CCCCC(=O)N(C)[C@@H](Cc2ccc(OCCO)cc2)C(=O)O1 [PF1163A]
targetDesc: Trichomonas vaginalis G3 trophozoites
T.vaginalis_%inb_Rep1 [%]: 11.61
//
compound: COC(=O)c1ccc(CCCCCCCCCCc2ccc(C(=O)OC)nc2)cn1 [Penicolinate A, penicolinate A]
targetDesc: Trichomonas vaginalis G3 trophozoites
T.vaginalis_%inb_Rep1 [%]: 78.85
//
compound: C/C=C\C=C\[C@@H]1O[C@](O)([C@H](CO[C@H]2C[C@@H](OC)[C@@H](O[C@@H]3C[C@@H](OC)[C@@H](O[C@H]4C[C@H](OC)[C@H](O)[C@H](C)O4)[C@H](C)O3)[C@@H](C)O2)C(=O)NC/C=C/C=C(\C)[C@@H](OC)[C@H](C)[C@H]2C[C@H](O)[C@H](/C=C/C=C/C=C/C(=O)O)O2)[C@H](OC(=O)Cc2ccccc2)[C@H](O)C1(C)C [Phenelfamycin E]
targetDesc: Trichomonas vaginalis G3 trophozoites
T.vaginalis_%inb_Rep1 [%]: 11.16
//
compound: C/C=C(\C)c1c(Cl)c(OC)c(C)c2c1Oc1c(Cl)c(O)c(Cl)c(C)c1C(=O)O2 [Nidulin]
targetDesc: Trichomonas vaginalis G3 trophozoites
T.vaginalis_%inb_Rep1 [%]: 13.95

query: T.vaginalis_%inb_Rep1 for C[C@@H]1CC[C@H](O)/C=C/C(=O)O[C@H](C)CC[C@H](O)/C=C/C(=O)O1 [Pyrenophorol] ?
result: 10.44

query: T.vaginalis_%inb_Rep1 for NC(=O)c1cccc2nc3ccccc3nc12 [Oxychloroaphine] ?
result: 11.41

query: T.vaginalis_%inb_Rep1 for CCCCCCCCCCCC(O)CC(=O)N[C@@H](CC(C)C)C(=O)N[C@H](CCC(=O)O)C(=O)N[C@H]1C(=O)N[C@H](C(C)C)C(=O)N[C@@H](CC(C)C)C(=O)N[C@H](CO)C(=O)N[C@@H](CC(C)C)C(=O)N[C@@H](CC(C)C)C(=O)N[C@H](CO)C(=O)N[C@@H](C(C)C)C(=O)O[C@@H]1C (stereo partly drawn) [Orfamide B] (X1-L[dE][d(aThr)][dV]L[dS]LL[dS]V; ester 3-C) ?
result: 16.23

query: T.vaginalis_%inb_Rep1 for CC(C)=CCC[C@H](C)[C@@]1(O)CC[C@]2(C)C[C@H]3[C@H](C(=O)C[C@@]3(C)O)/C(C=O)=C\C[C@H]21 [Ophiobolin B] ?
result: 11.82

query: T.vaginalis_%inb_Rep1 for CCCC[C@H](O)[C@@H]1CC(OC)=CC(=O)O1 [Pestalotin] ?
result: 11.05

query: T.vaginalis_%inb_Rep1 for C=C[C@]1(C)C[C@@H](O)[C@]2(C)[C@H](C)CC[C@]3(CCC(=O)[C@H]32)[C@@H](C)[C@@H]1O [Mutilin] ?
result: 12.02

query: T.vaginalis_%inb_Rep1 for C[C@@H]1Cc2ccc(C(=O)N[C@@H](Cc3ccccc3)C(=O)O)c(O)c2C(=O)O1 [Ochratoxin B] ?
result: 13.18
